type: in vitro ADME; settings: 50% Heat Inactivated Rat Serum, 24 h incubation, 37° C.
observable: % Conversion (prodrug converted to parent drug after binding to bone)

| molecule | result |
| --- | --- |
| CCN(CC)CC.CCN(CC)CC.CO[C@H]1/C=C/O[C@@]2(C)Oc3c(C)c(O)c4c(c3C2=O)C2=NC3(CCN(CC(C)C)CC3)N(C(=O)OCc3ccc(OC(=O)CCCC(P(=O)(O)O)P(=O)(O)O)cc3)C2=C(NC(=O)/C(C)=C\C=C\[C@H](C)[C@H](O)[C@@H](C)[C@@H](O)[C@@H](C)[C@H](OC(C)=O)[C@@H]1C)C4=O | 0.55 ± 0.20% |
| CCC(=O)OCOC(=O)N[C@@H](Cc1ccc(OCCCC(P(=O)(O)O)P(=O)(O)O)cc1)C(=O)N(C)CC(=O)O[C@@H]1[C@@H](C)[C@@H](O)[C@@H](C)[C@H](OC(C)=O)[C@H](C)[C@@H](OC)/C=C/O[C@@]2(C)Oc3c(C)c(O)c4c(c3C2=O)C2=NC3(CCN(CC(C)C)CC3)NC2=C(NC(=O)/C(C)=C\C=C\[C@@H]1C)C4=O.N.N | 0.16 ± 0.04% |
| CO[C@H]1/C=C/O[C@@]2(C)Oc3c(C)c(O)c4c(c3C2=O)C2=NC3(CCN(CC(C)C)CC3)N(C(=O)Oc3ccc(NC(=O)CCC(P(=O)(O)O)P(=O)(O)O)cc3)C2=C(NC(=O)/C(C)=C\C=C\[C@H](C)[C@H](O)[C@@H](C)[C@@H](O)[C@@H](C)[C@H](OC(C)=O)[C@@H]1C)C4=O | 0.07 ± 0.02% |
| CCC(=O)OCOC(=O)N[C@@H](CCCCNC(=O)CCC(P(=O)(O)O)P(=O)(O)O)C(=O)N(C)CC(=O)O[C@@H]1[C@@H](C)[C@@H](O)[C@@H](C)[C@H](OC(C)=O)[C@H](C)[C@@H](OC)/C=C/O[C@@]2(C)Oc3c(C)c(O)c4c(c3C2=O)C2=NC3(CCN(CC(C)C)CC3)NC2=C(NC(=O)/C(C)=C\C=C\[C@@H]1C)C4=O.N.N | 0.13% |
| CCN(CC)CC.CO[C@H]1/C=C/O[C@@]2(C)Oc3c(C)c(O)c4c(c3C2=O)C2=NC3(CCN(CC(C)C)CC3)NC2=C(NC(=O)/C(C)=C\C=C\[C@H](C)[C@H](OC(=O)CN(C)C(=O)Nc2ccc(CC(P(=O)(O)O)P(=O)(O)O)cc2)[C@@H](C)[C@@H](O)[C@@H](C)[C@H](OC(C)=O)[C@@H]1C)C4=O [Compound 142b] | 0.24 ± 0.04% |
| CO[C@H]1/C=C/O[C@@]2(C)Oc3c(C)c(O)c4c(c3C2=O)C2=NC3(CCN(CC(C)C)CC3)NC2=C(NC(=O)/C(C)=C\C=C\[C@H](C)[C@H](OC(=O)CN(C)CCOC(=O)CCC(P(=O)(O)O)P(=O)(O)O)[C@@H](C)[C@@H](O)[C@@H](C)[C@H](OC(C)=O)[C@@H]1C)C4=O | 0.07% |
| CO[C@H]1/C=C/O[C@@]2(C)Oc3c(C)c(O)c4c(c3C2=O)C2=NC3(CCN(CC(C)C)CC3)N(C(=O)OCc3cc(C)c(OC(=O)CCC(P(=O)(O)O)P(=O)(O)O)c(C)c3)C2=C(NC(=O)/C(C)=C\C=C\[C@H](C)[C@H](O)[C@@H](C)[C@@H](O)[C@@H](C)[C@H](OC(C)=O)[C@@H]1C)C4=O.N.N | 0.14% |
